assay: Sulfate conjugation of opicapone in human liver S9; format: in vitro ADME; conditions: human liver S9 fraction (HLS9), pH 7.4
Metric: Km

What measured Km goes with Cc1c(Cl)c(C)[n+]([O-])c(Cl)c1-c1noc(-c2cc(O)c(O)c([N+](=O)[O-])c2)n1 [opicapone] ?
20.5 µM

* * *

Target: rat soluble COMT (Rattus norvegicus)
Sequence (P22734 1-221 isoform P22734-2): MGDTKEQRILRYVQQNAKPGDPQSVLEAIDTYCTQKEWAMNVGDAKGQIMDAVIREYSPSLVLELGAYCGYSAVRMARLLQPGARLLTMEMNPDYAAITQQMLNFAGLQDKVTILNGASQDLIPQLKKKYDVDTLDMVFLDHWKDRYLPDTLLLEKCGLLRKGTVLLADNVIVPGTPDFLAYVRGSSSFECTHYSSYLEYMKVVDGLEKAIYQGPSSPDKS
For each entry below, report its IC50 value.
Give bare numbers, in nM.

Cc1nc(Cl)c(-c2noc(-c3cc(O)c(O)c([N+](=O)[O-])c3)n2)c(C)c1Cl :: 128

Let us examine a further case.
What measured IC50 goes with COc1c(O)cc(-c2nc(-c3c(C)c(Cl)c(C)[n+]([O-])c3Cl)no2)cc1[N+](=O)[O-] ?
429

* * *

type: in vivo, rat; conditions: rat, plasma, po, 1 g/kg
For each entry below, report its Cmax value.
One number for each entry, in ng/mL.

Below, each entry is followed by its recorded Cmax result.
COc1cc(-c2nc(-c3c(C)c(Cl)c(C)[n+]([O-])c3Cl)no2)cc([N+](=O)[O-])c1O :: 1420
Cc1c(Cl)c(C)[n+]([O-])c(Cl)c1-c1noc(-c2cc(O)c(O)c([N+](=O)[O-])c2)n1 :: 7090
Cc1nc(Cl)c(-c2noc(-c3cc(O)c(O)c([N+](=O)[O-])c3)n2)c(C)c1Cl :: 381

What measured Cmax goes with Cc1c(Cl)c(C)[n+]([O-])c(Cl)c1-c1noc(-c2cc(O[C@@H]3O[C@H](C(=O)O)[C@@H](O)[C@H](O)[C@H]3O)c(O)c([N+](=O)[O-])c2)n1 ?
4290

* * *

test: Glucuronidation of opicapone in human liver microsomes; type: in vitro ADME; conditions: human liver microsomes (HLM), pH 7.5
Metric: Km (µM)
Give bare numbers, in µM.

What measured Km goes with Cc1c(Cl)c(C)[n+]([O-])c(Cl)c1-c1noc(-c2cc(O)c(O)c([N+](=O)[O-])c2)n1 ?
27.9

* * *

type: in vivo, rat; details: rat, plasma, po, 1 g/kg, t max, oral 1 g/kg opicapone, median (range)
Metric: Tmax

Cc1nc(Cl)c(-c2noc(-c3cc(O)c(O)c([N+](=O)[O-])c3)n2)c(C)c1Cl [BIA 9‐1079] :: 4 h

Let us examine a further case.
What measured Tmax goes with COc1cc(-c2nc(-c3c(C)c(Cl)c(C)[n+]([O-])c3Cl)no2)cc([N+](=O)[O-])c1O [BIA 9‐1100] ?
1.5 h

Data origin, for the record: paper PMC8929358
